Property: melting point; scope: individual compounds

SMILES_DATA: COc1ccccc1C(=O)c1sc(NCCc2ccc(Cl)cc2)nc1N
melting point: 150 to 151 °C

According to the records, this compound Cc1c(-c2ccc3cn[nH]c3c2)cc(Nc2ccc(N3CCOCC3)cn2)c2nccn12 displays melting point of 160 to 164 °C

----------
RESULT_TYPE: melting point

Solved cases below.
COMPOUND: CCCCc1nc(CCc2ccccc2)nn1Cc1ccc(-c2ccccc2-n2cnnn2)cc1
melting point: 156 to 157 °C
--
COMPOUND: CC(C)c1cc2c(c(O)c1O)C1(C(=O)O)CCCC(C)(C)C1CC2 (centres undefined)
melting point: 193 to 199 °C
--
COMPOUND: NC(=O)c1c(Cl)c(-c2ccccc2)n2c1CN(S(=O)(=O)c1ccccc1F)CC2
melting point: 239 to 240 °C
--
COMPOUND: Cc1nc2n(c(=O)c1CCN1CCC(c3n[nH]c4cc(F)ccc34)CC1)CCS2
melting point: 208 °C
--
COMPOUND: CCCCCCCCCCCCCCCCc1cc(S)c(Sc2nnc(SCC(=O)O)s2)cc1O
melting point: 71 to 76 °C
--
COMPOUND: COc1cn(-c2ccc(N3CCC3=O)cc2F)nc(-c2ccnn2-c2ccccc2)c1=O
melting point: 189 to 194 °C
--
COMPOUND: CCNC(=O)NC(CC)c1ccc(Cl)c2nc3n(c12)CCCN3c1ccc(Cl)cc1Cl (centres undefined)
melting point: 250 to 252 °C
--
COMPOUND: Cn1cnc2cc(F)ccc2c1=O
melting point: 133 to 135 °C

Here is another compound to look at.
According to the records, this compound O=C(NO)[C@H]1CN(C(=O)NC2CCCCC2)CCN1S(=O)(=O)c1ccc(-c2ccc(F)cc2)s1 displays melting point of 111 to 123 °C

----------
Property: melting point; scope: individual compounds

COMPOUND: COc1ccc(-c2cc(=O)n(Cc3ccccc3)nc2-c2ccc(OC)c(F)c2)cc1F
melting point: 114 to 115 °C
//
COMPOUND: CCn1ncc2nc(C(=O)OCC#N)c(-c3ccccc3)nc21
melting point: 102 to 103 °C

According to the records, this compound CCCN1CCN(c2cccc3c2C[C@H](NC(C)=O)CC3)CC1 displays melting point of 139 to 140 °C

According to the records, this compound CN1Cc2c(C#N)ncn2-c2ccccc2C1=O displays melting point of 184 to 186 °C

According to the records, this compound O=C(c1ccc([N+](=O)[O-])cc1)N1CCCCc2sccc21 displays melting point of 141 to 142 °C

According to the records, this compound COC(=O)CCCc1nc2c([nH]1)c(=O)n(C)c(=O)n2C displays melting point of 200 to 204 °C

According to the records, this compound CCC(=O)NC1Cc2ccccc2C(Cc2ccccc2)C1 (stereo unspecified) displays melting point of 148 to 149 °C

According to the records, this compound CCCn1c(=O)c2c(nc(/C=C/c3ccc(OC)c(O)c3)n2C)n(CCC)c1=O displays melting point of 200 to 204 °C

According to the records, this compound CC(C)(Nc1ccccc1N)C(=O)O displays melting point of 130 to 132 °C

According to the records, this compound CN(C)Cc1nnc2n1-c1ccc(Cl)cc1C(c1ccccc1Cl)=NC2 displays melting point of 199 to 201 °C

According to the records, this compound CCCS(=O)(=O)Nc1cccc(C)c1C(N)c1cccn2c(C)c(C)nc12 (stereo unspecified) displays melting point of 245 to 248 °C

According to the records, this compound Cc1cn(C2(C(=O)N(C)C)CCC2)nc1-c1ccccc1 displays melting point of 87 to 89 °C

According to the records, this compound Cc1c(-c2ccnn2-c2ccc(C#N)cc2)nc(C(N)=O)c(=O)n1-c1cccc(C(F)(F)F)c1 displays melting point of 264 °C

According to the records, this compound CC1=C(C)C(=O)N(c2ccc(C)c(NS(=O)(=O)C(F)(F)F)c2)C1=O displays melting point of 152 to 154 °C

According to the records, this compound CCCCCCC1CCC(c2ccc(CCCCC)cc2)OC1=O (stereo unspecified) displays melting point of 101 to 102 °C

According to the records, this compound CC(C)c1ccc(C2(CC(=O)O)CNC(=O)C2)cc1 (stereo unspecified) displays melting point of 175 to 178 °C

----------
RESULT_TYPE: melting point

MOLECULE: CCn1cc(C(=O)NCc2ccc(Cl)cc2)c(=O)c2cc(CO)sc21
melting point: 169 to 172 °C
--
MOLECULE: C=CC(=O)NC(=O)NCCS(=O)C=C (stereo not given)
melting point: 109 to 110 °C
--
MOLECULE: O=C(O)c1ccc(OCCN2CCOCC2)cc1
melting point: 112 to 114 °C
--
MOLECULE: CCOC(=O)c1c(CCc2c[nH]nn2)nc2sc3c(c2c1-c1ccc(OC)c(OC)c1)CCN(C(=O)c1ccccc1)C3
melting point: 184 to 185 °C
--
MOLECULE: Cc1ccc(S(=O)(=O)n2cncn2)cc1
melting point: 105 to 107 °C
--
MOLECULE: CCNC(=O)ON(C(C)=O)C(=O)NCC
melting point: 84 to 86 °C

According to the records, this molecule CCCCCOc1ccc(-c2ncc(C#N)cn2)cc1 displays melting point of 98 to 98.1 °C

According to the records, this molecule Cn1c(CO)nnc1NCCCCOc1cccc(CN2CCCCC2)c1 displays melting point of 128 to 130 °C

According to the records, this molecule Fc1cccc(F)c1C1=NC(C2(OC(F)(F)F)C=CC(c3ccccc3)=CC2)CS1 (stereo not given) displays melting point of 85 to 86 °C

According to the records, this molecule CN(O)C(=O)c1ccc(CCCCc2ccc(C(=O)N(C)O)cc2)cc1 displays melting point of 157 to 159 °C

----------
RESULT_TYPE: melting point

Solved cases below.
MOLECULE: O=S(=O)(Nc1ccc2c(OCc3coc(-c4ccc(Br)cc4)n3)cccc2c1)C(F)(F)F
RESULT: 205 to 207 °C
//
MOLECULE: CCCCCCCCCc1cnc(-c2ccc(OCc3ccc(CCCCCC)cc3)cc2)nc1
RESULT: 51 °C
//
MOLECULE: CC1(COCC(COCC2(C)COC2)(COCC2(C)COC2)COCC2(C)COC2)COC1
RESULT: 108 to 110 °C

According to the records, this molecule N=C(N)c1ccc2cc(OC(=O)C3CCC(CNC(=O)OCc4ccccc4)CC3)ccc2c1 (stereo unspecified) displays melting point of 167 to 170 °C

According to the records, this molecule CC(=C[N+](=O)[O-])c1ccccc1O displays melting point of 110 to 112 °C

----------
RESULT_TYPE: melting point

COMPOUND: O=C(Nc1cc(CN2CCOCC2)c(O)c(CN2CCOCC2)c1)c1ccccc1
RESULT_TYPE: melting point
RESULT: 152 to 154 °C
//
COMPOUND: O=C(c1cnc2ccccc2c1)C1CCN(C(=O)c2ccccc2)CC1
RESULT_TYPE: melting point
RESULT: 170 °C
//
COMPOUND: CCCCC(CC)COc1ccc(-c2c3ccc(O)cc3c(-c3ccc(OCC(CC)CCCC)cc3)c3ccc(O)cc23)cc1 (stereo not given)
RESULT_TYPE: melting point
RESULT: 195 to 197 °C
//
COMPOUND: N#Cc1c(-c2ccc(Cl)cc2)[nH]c(Cl)c1Cl
RESULT_TYPE: melting point
RESULT: 259 to 261 °C

Here is another compound to look at.
According to the records, this compound CC(c1cccc(F)c1)n1ncc(-c2ccc(S(N)(=O)=O)cc2)c(-c2ccc(F)cc2)c1=O (stereo not given) displays melting point of 192 to 194 °C

----------
Property: melting point; scope: individual compounds

Solved cases below.
COMPOUND: Cn1c(C(F)(F)F)cc(=O)n(-c2cc(OCc3ccc(F)cc3)c(Cl)cc2F)c1=O
melting point: 174 to 177 °C
--
COMPOUND: CCNC(=O)CC(c1ccc(OC)c(OC)c1)N1C(=O)c2ccccc2C1=O (stereo not given)
melting point: 131 to 132 °C
--
COMPOUND: CCOC(=O)COc1cc(C)c(C)c2c1CC(Br)C2=O (stereo not given)
melting point: 71 to 73 °C
--
COMPOUND: COc1nnc2n1C=Cc1cc(C)ccc1C2
melting point: 148 to 149 °C

Here is another compound to look at.
According to the records, this compound C[C@H](Nc1ncnc2[nH]cnc12)c1oc2ccc(F)cc2c(=O)c1-c1cccc(F)c1 displays melting point of 194 to 197 °C

----------
Property: melting point; scope: individual compounds

Solved cases below.
COMPOUND: COc1ccc(C=Cc2nnc(CCl)o2)cc1
melting point: 139 to 141 °C
//
COMPOUND: CCNc1nc2ccccc2n(-c2ccc(Cl)cc2)c1=O
melting point: 192 to 195 °C
//
COMPOUND: O=c1[nH]c(=O)n(CCCBr)c2ccccc12
melting point: 159 to 170 °C
//
COMPOUND: CC(C)Oc1ccc(CCCCOc2cc(CCC(=O)O)n(C(C)C)n2)c(Oc2ncc(C(F)(F)F)cc2Cl)c1
melting point: 99.5 to 100 °C

According to the records, this compound CN(C)C1=CCCS(=O)(=O)c2ccc(Cl)cc21 displays melting point of 93 to 95 °C

According to the records, this compound CC1(CBr)SC2C(NC(=O)Cc3ccccc3)C(=O)N2C1C(=O)OCC(Cl)(Cl)Cl (stereo not given) displays melting point of 90 to 93 °C

According to the records, this compound CC(=O)c1ccc(SCc2cc3c(cc2O)CCCO3)cc1 displays melting point of 192 to 193 °C

According to the records, this compound c1ccc2c(c1)C[C@H]1Cc3ccccc3[C@H]1O2 (relative stereo) displays melting point of 59 to 60 °C

According to the records, this compound Cc1ccc2c3c(ncc2c1)CCC(=O)N3 displays melting point of 265 to 266 °C

According to the records, this compound Cc1nc2c3c(ccc2[nH]1)[C@H]1OCCO[C@@H]1[C@@H](c1ccccc1)O3 displays melting point of 260 °C
